Test system: ARH77 cell line
Test: Standalone cytotoxicity, WST-1 colorimetric assay, ARH77
Format: cell-based
Conditions: Homo sapiens, ARH-77; ARH77, 48 hrs
readout: IC50

CC[C@H](N)C(=O)N[C@@H]1C(=O)N2[C@@H](CC[C@@H]1Cn1cc(CO[C@H](C)[C@H](NC(=O)[C@H](C)NC)C(=O)N3CCC[C@H]3Cn3nnnc3Sc3ccccc3)nn1)CC[C@H]2C(=O)NC(c1ccccc1)c1ccccc1 [Compound 44a]
> 10 µM

Query block: GET /values?readout=IC50&item= CC[C@H](N)C(=O)N[C@@H]1C(=O)N2[C@@H](CC[C@@H]1CO)CC[C@H]2C(=O)NC(c1ccccc1)c1ccccc1 [Compound 24a]
Result block: > 10 µM

Query block: GET /values?readout=IC50&item= CC[C@H](N)C(=O)N[C@@H]1C(=O)N2[C@@H](CC[C@@H]1CN)CC[C@H]2C(=O)NC(c1ccccc1)c1ccccc1 [Compound 26a]
Result block: > 10 µM

---

Biological target: human XIAP BIR3 domain (Homo sapiens)
Construct: human XIAP BIR3 domain from residue 241 to 356
Sequence (P98170 241-356): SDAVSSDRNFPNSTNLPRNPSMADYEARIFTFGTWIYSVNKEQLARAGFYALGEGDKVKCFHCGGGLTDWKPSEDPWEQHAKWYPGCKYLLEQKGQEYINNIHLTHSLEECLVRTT
Experiment: Fluorescence polarization competitive binding, displacement of FITC-SMAC probe from XIAP BIR3-His-tag
Details: XIAP BIR3, average of three independent measurements
readout: IC50
Put your answer as a value accompanied by its unit after it.

Query block: GET /values?readout=IC50&item= CC[C@H](N)C(=O)N[C@@H]1C(=O)N2[C@@H](CC[C@@H]1CCN)CC[C@H]2C(=O)NC(c1ccccc1)c1ccccc1 [Compound 38a]
Result block: 324 nM

---

Reported values of pIC50 for individual entries
Tested on: HL60 cells
Test: Standalone cytotoxicity, WST-1 colorimetric assay, HL60
Type: cell-based
Details: Homo sapiens, HL-60; HL60, 72 hrs
Please report pIC50 as the negative decimal logarithm of the molar concentration, giving only the number.

CC[C@H](N)C(=O)N[C@@H]1C(=O)N2[C@@H](CC[C@@H]1CN=[N+]=[N-])CC[C@H]2C(=O)NC(c1ccccc1)c1ccccc1 [Compound 25a]
8.74

Next:
Query block: Tell me reported pIC50 for CC[C@H](N)C(=O)N[C@@H]1C(=O)N2[C@@H](CC[C@@H]1COC(C)=O)CC[C@H]2C(=O)NC(c1ccccc1)c1ccccc1 [Compound 30a] , tested with HL60 cells.
Result block: 6.21

---

Reported values of IC50 for individual entries
Tested on: K562 cells
Test: Standalone cytotoxicity, WST-1 colorimetric assay, K562
Type: cell-based
Conditions: Homo sapiens; K562, 72 hrs

CC[C@H](N)C(=O)N[C@@H]1C(=O)N2[C@@H](CC[C@@H]1COC(C)=O)CC[C@H]2C(=O)NC(c1ccccc1)c1ccccc1 [Compound 30a]
> 10000 nM
CC[C@H](N)C(=O)N[C@@H]1C(=O)N2[C@@H](CC[C@@H]1CO)CC[C@H]2C(=O)NC(c1ccccc1)c1ccccc1 [Compound 24a]
> 10000 nM
CC[C@H](N)C(=O)N[C@@H]1C(=O)N2[C@@H](CC[C@@H]1CN=[N+]=[N-])CC[C@H]2C(=O)NC(c1ccccc1)c1ccccc1 [Compound 25a]
2130 nM

Next:
Query block: Tell me reported IC50 for CC[C@H](N)C(=O)N[C@@H]1C(=O)N2[C@@H](CC[C@@H]1CN)CC[C@H]2C(=O)NC(c1ccccc1)c1ccccc1 [Compound 26a] , tested with K562 cells.
Result block: 0.08 nM

Every entry's value here was drawn from patent US8609685B2.
